System: ATP;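 also: ATP exposure 15 min at 22 °C before imaging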
Procedure Details: switch fluorescence ratio, 500 uM ATP over buffer (Cy3 cluster intensity, sum of 5 cycles each) (fold (ratio)); higher = stronger signal-on switching upon ATP binding; sequences stand for … in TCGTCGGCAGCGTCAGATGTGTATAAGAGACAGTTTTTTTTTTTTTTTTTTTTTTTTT…TC
Condition Info: aptamer strand: ATP DNA aptamer (quencher-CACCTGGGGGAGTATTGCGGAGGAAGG + anchor), 100 nM annealed; ATP concentration: 500 uM
Listed here: items and their measured switch fluorescence ratio.

Please review the entries below; each comes with its answer.
GTCGTAATTG = 1.02
GTTTGGTGTG = 0.975
ATGGAGGTCT = 1.01

Form field, switch fluorescence ratio with ATP, item ACTAATATAT : 0.999

Form field, switch fluorescence ratio with ATP, item TGAGTGAATG : 0.979

Form field, switch fluorescence ratio with ATP, item TCAGGGGGAA : 1.01

Form field, switch fluorescence ratio with ATP, item GTACTTCATA : 1.03

Form field, switch fluorescence ratio with ATP, item GATTTAACGG : 1.01
